# System: Enterococcus faecalis
# Test description: Antibacterial activity against vancomycin-resistant Enterococcus faecalis ATCC 51299 after 18 hrs by broth dilution assay
# Format: functional, organism-based
# Condition context: ATCC 51299, 18 h

{"Compound": "Cc1cc(O)c2c(c1)C(=O)c1ccc3c(c1C2=O)O[C@@]12O[C@@H](C)[C@H]4C31C(=C(O)C[C@@]4(C)O)C(=O)c1c(O)cccc12 (some centres undefined)", "IC50 / µM": 2}
{"Compound": "CC1=CC(O)=C2C(=O)c3c(O)cccc3[C@@]34Oc5c(ccc6c5C(=O)c5c(O)cc(C)cc5C6=O)C23[C@@H]1[C@H](C)O4 (some centres undefined)", "IC50 / µM": 130}
{"Compound": "Cc1cc(O)c2c(c1)C(=O)c1ccc3c(c1C2=O)O[C@@]12O[C@@H](C)[C@@]4(O)C31C(=C(O)C[C@@]4(C)O)C(=O)c1c(O)cccc12 (some centres undefined)", "IC50 / µM": 12}
